meta.source: paper PMC3578163

Experimental Target: T1, DNA polymerase iota catalytic core (hpol ι26-446) (Homo sapiens, UniProt Q9UNA4 26-446)
T1 sequence: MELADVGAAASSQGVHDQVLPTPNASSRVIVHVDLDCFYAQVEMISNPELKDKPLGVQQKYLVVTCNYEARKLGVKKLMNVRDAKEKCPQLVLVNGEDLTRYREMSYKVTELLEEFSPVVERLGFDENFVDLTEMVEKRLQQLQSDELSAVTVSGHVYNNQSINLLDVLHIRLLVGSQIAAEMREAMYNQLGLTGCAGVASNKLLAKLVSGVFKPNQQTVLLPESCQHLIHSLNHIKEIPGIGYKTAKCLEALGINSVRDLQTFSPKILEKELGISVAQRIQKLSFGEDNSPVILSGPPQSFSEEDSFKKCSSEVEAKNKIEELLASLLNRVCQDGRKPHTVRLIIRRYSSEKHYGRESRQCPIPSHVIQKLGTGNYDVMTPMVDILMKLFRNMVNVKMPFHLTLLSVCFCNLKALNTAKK
Experimental Protocol: fluorescence polarization
Experimental Readout: pKd
Answers are plain numbers, as −log10 of the molar value.

Exercise: What does the record list as pKd for FAM-13/18mer primer-template DNA (dsDNA) DNA 1: TTTGGGGGAAGGATTC DNA 2: TCACGGAATCCTTCCCCC ?
Key: 8.26
